Where do the numbers come from? From PubChem BioAssay AID743449.

Below, each entry is listed with its recorded inhibition.
assay: YAP1 pathway inhibitors via CTGF transcript, primary screen, DLD1 colon cancer cells, RT-qPCR, single point (AID 743449); settings: DLD1 CTGF mRNA qPCR, 24 h; at 12.5 µM; active compounds read high;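 also: 0% = neutral control wells and 100% = dasatinib control wells; higher means stronger suppression of CTGF expression like dasatinib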
Screen size: about 9,900 compounds; about 90 (0.9%) were called active. About 2% were inconclusive and are not listed. This excerpt belongs to a sample that is enriched for actives.
Give just the numeric value; % need not be written.

{"columns": ["Smiles structure", "Observed value"],
 "data": [
  ["C[C@@H]1CN([C@H](C)CO)C(=O)Cc2cc(NC(=O)C3CCCCC3)ccc2O[C@H]1CN(C)Cc1ccc(Cl)c(Cl)c1", -7.16],
  ["COc1ccc(CN(C)C[C@H]2Oc3ccc(NC(=O)Nc4ccc5c(c4)OCO5)cc3CC(=O)N([C@@H](C)CO)C[C@H]2C)cc1", 57.9],
  ["COc1ccc(CN(C)C[C@@H]2Oc3ccc(NC(=O)Nc4ccc5c(c4)OCO5)cc3CC(=O)N([C@@H](C)CO)C[C@H]2C)cc1", 13.9]
]}

Okay, next one:
Kindly note the recorded inhibition for `C[C@@H]1CN([C@@H](C)CO)C(=O)Cc2cc(NC(=O)C3CCCCC3)ccc2O[C@@H]1CN(C)Cc1ccc(Cl)c(Cl)c1` , which is 50.3

----------
Below, each entry is listed with its recorded inhibition.
test: YAP1 pathway inhibitors via CTGF transcript, primary screen, DLD1 colon cancer cells, RT-qPCR, single point (AID 743449); conditions: DLD1 CTGF mRNA qPCR, 24 h; at 12.5 µM; active compounds read high;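 also: 0% = neutral control wells and 100% = dasatinib control wells; higher means stronger suppression of CTGF expression like dasatinib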
Hit rate of the full screen: of about 9,900 compounds, about 90 (0.9%) were called active. Inconclusive results (about 2%) are left out. The sample as a whole holds a higher share of actives than the screen did.
Give just the numeric value; % need not be written.

{"columns": ["Smiles structure", "U", "inhibition"],
 "data": [
  ["CC(C)(C)[S@@](=O)N1Cc2cc(C(=O)NCCc3ccncc3)nc(-c3cccc(-c4cccc(C#N)c4)c3)c2[C@H]1CCO", "%", 67.3],
  ["CCNC(=O)[C@@H]1[C@@H](CO)[C@@H]2Cn3c(cccc3=O)[C@H]1N2C(=O)Nc1cc(F)ccc1F", "%", -43],
  ["CCc1nc(N2[C@H](CO)[C@H](c3ccccc3-c3ccc(F)cc3)[C@@H]2C#N)sc1C", "%", -17.7],
  ["CC(C)(C)[S@](=O)N1Cc2cc(C(=O)NCCc3ccncc3)nc(-c3cccc(-c4cccc(C#N)c4)c3)c2[C@@H]1CCO", "%", 79.3],
  ["O=C(Nc1ccccc1)[C@H]1[C@H](CO)[C@H]2Cn3c(cccc3=O)[C@@H]1N2C(=O)c1ccc(F)cc1", "%", 11.4]
]}

Kindly note the recorded inhibition for `COc1ccccc1-c1cccc(-c2nc(C(=O)NCc3ccncc3)cc3c2[C@H](CCO)N([S@@](=O)C(C)(C)C)C3)c1` , which is 19.4

Kindly note the recorded inhibition for `CC(C)(C)[S@@](=O)N1Cc2cc(C(=O)NCCN3CCCC3)nc(-c3cccc(-c4ccc(C#N)cc4)c3)c2[C@H]1CCO` , which is -8.4

----------
assay: YAP1 pathway inhibitors via CTGF transcript, primary screen, DLD1 colon cancer cells, RT-qPCR, single point (AID 743449); details: DLD1 CTGF mRNA qPCR, 24 h; at 12.5 µM;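 also: 0% = neutral control wells and 100% = dasatinib control wells; higher means stronger suppression of CTGF expression like dasatinib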
Among all 9,900 compounds or so, about 90 (0.9%) were called active. Not shown: some 2% with an inconclusive outcome.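 How the source made its calls: active means mean normalized replicate activity at least 50 and at least half of replicates each reaching 50; inconclusive means only one of the two criteria met; inactive means neither criterion met.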 Only a selection was taken, and actives are over-represented in it overall.
One label from this list, please: yes = active, no = inactive

Example results:
{"columns": ["Smiles structure", "Class"],
 "data": [
  ["CCCC#Cc1ccc([C@@H]2[C@H]3CN(S(=O)(=O)c4ccccc4C)CC(=O)N3[C@H]2CO)cc1", "no"],
  ["CCCC(=O)Nc1ccc2c(c1)C(=O)N(C)C[C@H](OC)[C@@H](C)CN(Cc1ccc(F)cc1)[C@H](C)CO2", "no"]
]}

Query block: Please indicate how the test categorized `C/C=C/c1cccc(-c2nc(C(=O)N3CCCCC3)cc3c2[C@H](CCO)N(C(=O)NC(C)C)C3)c1` .
Result block: no

Query block: Please indicate how the test categorized `O=C(Nc1ccc(C(F)(F)F)cc1)Nc1ccc2c(c1)[C@H]1C[C@H](CC(=O)N3CCc4ccccc4C3)O[C@@H](CO)[C@H]1O2` .
Result block: yes
